Assay: Tmax in Sprague-Dawley rat at 5 mg/kg, po via gavage by LC-MS/MS analysis
Assay type: ADME, organism-based
Conditions: in vivo
readout: Tmax
Provide a numeric answer, followed by its unit.

IN: Fill blank: measured Tmax of the compound `C=C(C)[C@@H]1CC[C@]2(CNCCCN3CCS(=O)(=O)CC3)CC[C@]3(C)[C@H](CC[C@@H]4[C@@]5(C)CC=C(c6ccc(C(=O)O)cc6)C(C)(C)[C@@H]5CC[C@]43C)[C@@H]12.Cl` is ____.
OUT: 6.7 h

###

Assay: Oral bioavailability in Sprague-Dawley rat at 35 mg/kg via gavage up to 24 hrs by LC-MS/MS analysis
Type: ADME, organism-based
Conditions: in vivo
readout: bioavailability
A bare number is not enough; add the unit after it.

IN: Quick check: bioavailability of `C=C(C)[C@@H]1CC[C@]2(CNCCCN3CCS(=O)(=O)CC3)CC[C@]3(C)[C@H](CC[C@@H]4[C@@]5(C)CC=C(c6ccc(C(=O)O)cc6)C(C)(C)[C@@H]5CC[C@]43C)[C@@H]12.Cl` ?
OUT: 7%

###

Assay: Plasma concentration in Sprague-Dawley rat at 35 mg/kg, po via gavage after 24 hrs by LC-MS/MS analysis
Assay type: ADME, organism-based
readout: concentration at 24 h (nM)
Number only, in nM; omit the unit.

IN: Which concentration at 24 h reading was recorded for the molecule `C=C(C)[C@@H]1CC[C@]2(CNCCCN3CCS(=O)(=O)CC3)CC[C@]3(C)[C@H](CC[C@@H]4[C@@]5(C)CC=C(c6ccc(C(=O)O)cc6)C(C)(C)[C@@H]5CC[C@]43C)[C@@H]12.Cl` ?
OUT: 234

###

Test: in vitro
Details: rat, liver microsomes
Description: Half life in rat liver microsomes at 0.5 uM in presence of NADPH by LC-MS/MS method
readout: half-life at 0.5 µM

Here is how some compounds turned out for half-life at 0.5 µM.
molecule=C=C(C)[C@@H]1CC[C@]2(CNCCN3CCOCC3)CC[C@]3(C)[C@H](CC[C@@H]4[C@@]5(C)CC=C(c6ccc(C(=O)O)cc6)C(C)(C)[C@@H]5CC[C@]43C)[C@@H]12 reading="> 2 h"
molecule=C=C(C)[C@@H]1CC[C@]2(CNCCCN)CC[C@]3(C)[C@H](CC[C@@H]4[C@@]5(C)CC=C(c6ccc(C(=O)O)cc6)C(C)(C)[C@@H]5CC[C@]43C)[C@@H]12 reading="> 2 h"
molecule=C=C(C)[C@@H]1CC[C@]2(CN(C)CCCN3CCS(=O)(=O)CC3)CC[C@]3(C)[C@H](CC[C@@H]4[C@@]5(C)CC=C(c6ccc(C(=O)O)cc6)C(C)(C)[C@@H]5CC[C@]43C)[C@@H]12 reading="> 2 h"

IN: Which value of half-life at 0.5 µM has been reported for `C=C(C)[C@@H]1CC[C@]2(CNCCN3CCS(=O)(=O)CC3)CC[C@]3(C)[C@H](CC[C@@H]4[C@@]5(C)CC=C(c6ccc(C(=O)O)cc6)C(C)(C)[C@@H]5CC[C@]43C)[C@@H]12` in the records?
OUT: 1.8 h

IN: Report half-life at 0.5 µM for `C=C(C)[C@@H]1CC[C@]2(CNCCCNCCO)CC[C@]3(C)[C@H](CC[C@@H]4[C@@]5(C)CC=C(c6ccc(C(=O)O)cc6)C(C)(C)[C@@H]5CC[C@]43C)[C@@H]12` please.
OUT: > 2 h

###

Assay: in vitro
Conditions: human, MT2 cells
Description: Cytotoxicity against human MT2 cells
Known log10 of CC50 of a selection of compounds
Would you kindly interpret these values as log10 of CC50 expressed in nM?

molecule=C=C(C)[C@@H]1CC[C@]2(CNCCNC(C)=O)CC[C@]3(C)[C@H](CC[C@@H]4[C@@]5(C)CC=C(c6ccc(C(=O)O)cc6)C(C)(C)[C@@H]5CC[C@]43C)[C@@H]12 readout="log10 of CC50" reading=3.80

IN: Query (compound): `C=C(C)[C@@H]1CC[C@]2(CNCCCNCCO)CC[C@]3(C)[C@H](CC[C@@H]4[C@@]5(C)CC=C(c6ccc(C(=O)O)cc6)C(C)(C)[C@@H]5CC[C@]43C)[C@@H]12` ; field requested: log10 of CC50
OUT: 2.51

IN: # log10 of CC50 lookup, item `C=C(C)[C@@H]1CC[C@]2(CNCCNCCO)CC[C@]3(C)[C@H](CC[C@@H]4[C@@]5(C)CC=C(c6ccc(C(=O)O)cc6)C(C)(C)[C@@H]5CC[C@]43C)[C@@H]12`
OUT: 3.30

IN: Form field: reported log10 of CC50 of `C=C(C)[C@@H]1CC[C@]2(CNCCCN(C)C)CC[C@]3(C)[C@H](CC[C@@H]4[C@@]5(C)CC=C(c6ccc(C(=O)O)cc6)C(C)(C)[C@@H]5CC[C@]43C)[C@@H]12`
OUT: 3.65

IN: # get_value(readout='log10 of CC50', item= `C=C(C)[C@@H]1CC[C@]2(CNCCN3CCNCC3)CC[C@]3(C)[C@H](CC[C@@H]4[C@@]5(C)CC=C(c6ccc(C(=O)O)cc6)C(C)(C)[C@@H]5CC[C@]43C)[C@@H]12` )
OUT: 3.36

###

Assay: in vitro
Conditions: human, MT2 cells
API: label(entry) gives satisfied if the entry's CC50 is strictly smaller than 6 µM; on equality or larger values it gives not satisfied.

molecule=C=C(C)[C@@H]1CC[C@]2(CNCCN3CCOCC3)CC[C@]3(C)[C@H](CC[C@@H]4[C@@]5(C)CC=C(c6ccc(C(=O)O)cc6)C(C)(C)[C@@H]5CC[C@]43C)[C@@H]12 group=satisfied
molecule=C=C(C)[C@@H]1CC[C@]2(CNCCN(C)C)CC[C@]3(C)[C@H](CC[C@@H]4[C@@]5(C)CC=C(c6ccc(C(=O)O)cc6)C(C)(C)[C@@H]5CC[C@]43C)[C@@H]12 group=satisfied

IN: # TODO verify CC50 < 6 µM strictly for this compound: `C=C(C)[C@@H]1CC[C@]2(CNCCCN3CCCC3=O)CC[C@]3(C)[C@H](CC[C@@H]4[C@@]5(C)CC=C(c6ccc(C(=O)O)cc6)C(C)(C)[C@@H]5CC[C@]43C)[C@@H]12`
OUT: satisfied

IN: API: query returns whether the compound falls strictly under 6 µM in CC50. Query: `C=C(C)[C@@H]1CC[C@]2(CNCCCN(C)c3ccccc3)CC[C@]3(C)[C@H](CC[C@@H]4[C@@]5(C)CC=C(c6ccc(C(=O)O)cc6)C(C)(C)[C@@H]5CC[C@]43C)[C@@H]12`
OUT: not satisfied

IN: Does the reported CC50 of the following compound sit strictly below 6 µM? `C=C(C)[C@@H]1CC[C@]2(CNCCc3ccccn3)CC[C@]3(C)[C@H](CC[C@@H]4[C@@]5(C)CC=C(c6ccc(C(=O)O)cc6)C(C)(C)[C@@H]5CC[C@]43C)[C@@H]12`
OUT: not satisfied

###

Experiment: in vitro
Conditions: human, MT2 cells
# CC50 per entry
# value in µM; strip the unit string

Some molecules with known CC50 results, for comparison:
molecule=C=C(C)[C@@H]1CC[C@]2(CNC(=O)CNC)CC[C@]3(C)[C@H](CC[C@@H]4[C@@]5(C)CC=C(c6ccc(C(=O)O)cc6)C(C)(C)[C@@H]5CC[C@]43C)[C@@H]12 reading=16
molecule=C=C(C)[C@@H]1CC[C@]2(CNCCCN)CC[C@]3(C)[C@H](CC[C@@H]4[C@@]5(C)CC=C(c6ccc(C(=O)O)cc6)C(C)(C)[C@@H]5CC[C@]43C)[C@@H]12 reading=0.12

IN: Which CC50 reading was recorded for the molecule `C=C(C)[C@@H]1CC[C@]2(CNCCN3CCC(F)(F)CC3)CC[C@]3(C)[C@H](CC[C@@H]4[C@@]5(C)CC=C(c6ccc(C(=O)O)cc6)C(C)(C)[C@@H]5CC[C@]43C)[C@@H]12` ?
OUT: 8.5

IN: # get_value(readout='CC50', item= `C=C(C)[C@@H]1CC[C@]2(CN(CCCN3CCS(=O)(=O)CC3)C3CC3)CC[C@]3(C)[C@H](CC[C@@H]4[C@@]5(C)CC=C(c6ccc(C(=O)O)cc6)C(C)(C)[C@@H]5CC[C@]43C)[C@@H]12` )
OUT: 7

###

Test: in vivo
Settings: Sprague-Dawley, rat, po, 5 mg/kg
readout: AUC(0-t) at 24 h (µM·h)
Give the value in µM·h but do not write µM·h after it.

Example results:
molecule=C=C(C)[C@@H]1CC[C@]2(CNCCN(C)C)CC[C@]3(C)[C@H](CC[C@@H]4[C@@]5(C)CC=C(c6ccc(C(=O)O)cc6)C(C)(C)[C@@H]5CC[C@]43C)[C@@H]12 reading=1.28
molecule=C=C(C)[C@@H]1CC[C@]2(CN(C)CCCN3CCS(=O)(=O)CC3)CC[C@]3(C)[C@H](CC[C@@H]4[C@@]5(C)CC=C(c6ccc(C(=O)O)cc6)C(C)(C)[C@@H]5CC[C@]43C)[C@@H]12 reading=9.06
molecule=C=C(C)[C@@H]1CC[C@]2(C(=O)NCCN(C)C)CC[C@]3(C)[C@H](CC[C@@H]4[C@@]5(C)CC=C(c6ccc(C(=O)O)cc6)C(C)(C)[C@@H]5CC[C@]43C)[C@@H]12 reading=3.81

Next compound, AUC(0-t) at 24 h to be filled in.
IN: Bench note: what AUC(0-t) at 24 h did `C=C(C)[C@@H]1CC[C@]2(CNCCCN3CCS(=O)(=O)CC3)CC[C@]3(C)[C@H](CC[C@@H]4[C@@]5(C)CC=C(c6ccc(C(=O)O)cc6)C(C)(C)[C@@H]5CC[C@]43C)[C@@H]12` show?
OUT: 2.81
